glass transition temperature strictly less than 90 °C = 1. Otherwise 0.

Input line: For *c1cc(C(C)C)c(Oc2ccc(S(=O)(=O)c3ccc(Oc4cc(C)c(C5(*)OC(=O)c6ccccc65)cc4C(C)C)cc3)cc2)cc1C (repeat unit) , is the recorded glass transition temperature below the cut-off of 90 °C?
Output line: 0

Input line: Try this compound next: *c1cccc(NC(=O)CCCCCCCCCCC(=O)Nc2cccc(S(*)(=O)=O)c2)c1 (repeat unit)
Output line: 0

Input line: Try this compound next: *NC(CCC(=O)OCCCCCCCC)C(*)=O (repeat unit)
Output line: 1

Input line: Try this compound next: *CCCCCCCOc1ccc(-c2ccc(O*)c3ccccc23)c2ccccc12 (repeat unit)
Output line: 0

Input line: Try this compound next: *Oc1c(-c2ccccc2)cc(*)cc1-c1ccccc1 (repeat unit)
Output line: 0

Input line: Try this compound next: *CCCCCNC(=O)CCCCC(=O)N* (repeat unit)
Output line: 1

Input line: Try this compound next: *Oc1ccc(NC(=O)c2cccc(C(=O)Nc3ccc(Oc4ccc(C(=O)c5ccc(*)cc5)cc4)cc3)c2)cc1 (repeat unit)
Output line: 0

----------
So I've got a bunch of molecules here, and I need their glass transition temperature values.
Just the number in °C, nothing appended.

Input line: What glass transition temperature value was documented for this molecule, *C(=O)c1ccc2c(c1)C(=O)N(c1cccc(OCCOc3cccc(N4C(=O)c5ccc(*)cc5C4=O)c3)c1)C2=O (repeat unit) ?
Output line: 191.00

Input line: Try this molecule next: *CC(*)n1ccnc1 (repeat unit)
Output line: 175.00

Input line: Try this molecule next: *CC(=O)NCCCCCCNC(=O)COc1ccc(O*)cc1 (repeat unit)
Output line: 67.00

Input line: Try this molecule next: *c1ccc(Oc2ccc(Sc3ccc(Oc4ccc(-c5cccc(*)n5)cc4C(F)(F)F)cc3)cc2)c(C(F)(F)F)c1 (repeat unit)
Output line: 144.50

----------
glass transition temperature strictly less than 70 °C = criterion met. Otherwise criterion not met.

Input line: For *CCCCCCCCNC(=O)C(OC)C(OC)C(=O)N* (repeat unit) , is the recorded glass transition temperature below the cut-off of 70 °C?
Output line: criterion not met

Input line: Try this compound next: */C=C(/*)c1cccc[c]1[Ge]([CH3])([CH3])[CH3] (repeat unit)
Output line: criterion not met

Input line: Try this compound next: *OS(=O)(=O)c1cc(S(=O)(=O)Oc2ccc(C3(c4ccc(*)c(C)c4)CCCCC3)cc2C)ccc1C (repeat unit)
Output line: criterion not met

Input line: Try this compound next: *Oc1ccc(CC(NC(=O)Cc2ccc(OC(=O)CCCCC(*)=O)cc2)C(=O)OCCCCCCCC)cc1 (repeat unit)
Output line: criterion met

Input line: Try this compound next: *O[Si](C)(C)O[Si](C)(C)c1c(F)c(F)c(F)c([Si](*)(C)C)c1F (repeat unit)
Output line: criterion met

Input line: Try this compound next: *CCCCCCc1ccc(-c2c(-c3ccccc3)cc(-c3cccc(-c4cc(-c5ccccc5)c(-c5ccc(*)cc5)c(-c5ccccc5)c4-c4ccccc4)c3)c(-c3ccccc3)c2-c2ccccc2)cc1 (repeat unit)
Output line: criterion not met

Input line: Try this compound next: *OC1CCC(OC(=O)CCCCCCCCC(*)=O)CC1 (repeat unit)
Output line: criterion met

Input line: Try this compound next: *C(C)C(*)C(=O)OC12CC3CC(CC(C3)C1)C2 (repeat unit)
Output line: criterion not met

Input line: Try this compound next: *c1ccc(Oc2ccc(/C=C/c3ccc(Oc4ccc(-c5nnc(*)o5)cc4)c4ccccc34)cc2)cc1 (repeat unit)
Output line: criterion not met

Input line: Try this compound next: *Oc1cccc(NC(=O)c2cccc(C(=O)Nc3ccc(*)cc3)c2)c1 (repeat unit)
Output line: criterion not met

Input line: Try this compound next: *CCCCOC(=O)Nc1ccc(Cc2ccc(NC(=O)OCCCCn3c4ccccc4c4cc(/C=C(\C#N)C(=O)OCCCCCCOC(=O)/C(C#N)=C/c5ccc6c(c5)c5ccccc5n6*)ccc43)cc2)cc1 (repeat unit)
Output line: criterion not met

Input line: Try this compound next: *c1ccc(Oc2ccc(C(=O)c3ccc(C(=O)c4ccc(Oc5ccc(-c6nc7ccccc7n6-c6ccc(-n7c(*)nc8ccccc87)cc6)cc5)cc4)cc3)cc2)cc1 (repeat unit)
Output line: criterion not met

Input line: Try this compound next: *CCCCCCNC(=O)C(CC)CC(CC)C(=O)N* (repeat unit)
Output line: criterion not met

Input line: Try this compound next: *CC(*)C(=O)OCCCCSC (repeat unit)
Output line: criterion met

Input line: Try this compound next: *c1ccc(Oc2ccc(-c3csc(/N=C/c4ccc(OCCCCCCOc5ccc(/C=N/c6nc(*)cs6)cc5)cc4)n3)cc2)cc1 (repeat unit)
Output line: criterion not met

Input line: Try this compound next: *Oc1ccc(C(C)(C)c2ccc(Oc3ccc4c(=O)n5c6cc(Oc7ccc8c(c7)nc7c9ccc(*)c%10cccc(c(=O)n87)c%109)ccc6nc5c5cccc3c45)cc2)cc1 (repeat unit)
Output line: criterion not met

Input line: Try this compound next: *CCCCCCCCOc1ccc(/C=C2\CCC/C(=C\c3ccc(O*)cc3)C2=O)cc1 (repeat unit)
Output line: criterion not met

Input line: Try this compound next: *c1ccc(Cc2ccc(-n3nccc3-c3ccc(-c4ccnn4*)cc3)cc2)cc1 (repeat unit)
Output line: criterion not met

Input line: Try this compound next: *Oc1ccc(C(=O)c2ccc(NC(=O)c3cccc(C(=O)Nc4ccc(C(=O)c5ccc(*)cc5)cc4)c3)cc2)cc1 (repeat unit)
Output line: criterion not met

Input line: Try this compound next: *[Si](*)(CCCCCC)c1ccccc1 (repeat unit)
Output line: criterion met

Input line: Try this compound next: *OC(=O)NC1CCC(CC2CCC(NC(=O)OC3CC4CC(*)CC(C3)O4)CC2)CC1 (repeat unit)
Output line: criterion not met

Input line: Try this compound next: *Oc1ccc(-c2ccc(Oc3ccc(Oc4ccc(Oc5ccc(*)cc5)cc4)cc3)c3ccccc23)c2ccccc12 (repeat unit)
Output line: criterion not met

Input line: Try this compound next: *OC(=O)c1cccc(OCCCCCCOc2cccc(C(=O)OC3COC4C(*)COC34)c2)c1 (repeat unit)
Output line: criterion met

Input line: Try this compound next: *CCCCCCN1C(=O)C(=O)N(c2ccc(Cc3ccc(N4C(=O)C(=O)N(*)C4=O)cc3)cc2)C1=O (repeat unit)
Output line: criterion not met

Input line: Try this compound next: *CC#C/C(C#CCOC(=O)CCCCCCCCC(=O)O*)=C\c1ccc(C#Cc2ccc([N+](=O)[O-])cc2)cc1 (repeat unit)
Output line: criterion met

Input line: Try this compound next: *OC(=O)CCCCCCCCC(=O)OC1COC2C(*)COC12 (repeat unit)
Output line: criterion met

Input line: Try this compound next: *CCC(=O)Nc1ccc(Oc2ccc(Oc3ccc(NC(=O)CCN4C(=O)c5ccc(C(=O)c6ccc7c(c6)C(=O)N(*)C7=O)cc5C4=O)cc3)cc2)cc1 (repeat unit)
Output line: criterion not met

Input line: Try this compound next: *CCOC(=O)NCCCCCCNC(=O)O* (repeat unit)
Output line: criterion met

Input line: Try this compound next: *Oc1ccc(C2(c3ccc(OC(=O)c4ccc(C(*)=O)cc4)c(C)c3)CCC3CCCCC3C2)cc1C (repeat unit)
Output line: criterion not met

----------
glass transition temperature strictly less than 200 °C = y. Otherwise n.

Input line: For *Oc1ccc(C(C)(C)c2ccc(C(C)(C)c3ccc(Oc4ccc(C(=O)Nc5ccc(Cc6ccc(NC(=O)c7ccc(*)cc7)cc6)cc5)cc4)cc3)cc2)cc1 (repeat unit) , is the recorded glass transition temperature below the cut-off of 200 °C?
Output line: y

Input line: Try this compound next: *OP(=O)(Oc1ccc(S(=O)(=O)c2ccc(*)cc2)cc1)OC1CCCCC1 (repeat unit)
Output line: y

Input line: Try this compound next: *Oc1ccc(S(=O)(=O)c2ccc(Oc3ccc(/C=C4\CC/C(=C\c5ccc(*)cc5)C4=O)cc3)cc2)cc1 (repeat unit)
Output line: n

Input line: Try this compound next: *C(*)C(=O)OC1CCCCC1 (repeat unit)
Output line: y

Input line: Try this compound next: *CC(*)OC(C)=O (repeat unit) [poly(vinyl acetate)]
Output line: y

Input line: Try this compound next: *CC(O)COc1ccc(C(C)(C)c2ccc(OCC(O)COc3cccc(NC(=O)Cc4cccc(CC(=O)Nc5cccc(O*)c5)c4)c3)cc2)cc1 (repeat unit)
Output line: y

Input line: Try this compound next: *c1ccc2c(c1)C(=O)N(c1c(C)cc(-c3cc(C)c(N4C(=O)c5ccc(C(*)(C(F)(F)F)C(F)(F)F)cc5C4=O)c(C)c3)cc1C)C2=O (repeat unit)
Output line: n

----------
± gives the standard deviation of the reports.
Readout label: glass transition temperature
// unit must come after the numeric part

Input line: What glass transition temperature value was documented for this molecule, *C(=O)OC1CC2CC(OC(=O)N3CCN(*)CC3)CC(C1)O2 (repeat unit) ?
Output line: 113.00 °C

Input line: Try this molecule next: *Oc1ccc(Oc2ccc(Oc3cccc(C(=O)Oc4ccc(-c5ccc(OC(=O)c6cccc(*)c6)cc5)cc4)c3)cc2)cc1 (repeat unit)
Output line: 119.00 °C

Input line: Try this molecule next: *CCC(=O)NCc1cc(C)c(CNC(=O)CCO*)cc1C (repeat unit)
Output line: 80.00 °C

Input line: Try this molecule next: *CCCCCOc1ccc(-c2ccc(O*)c3ccccc23)c2ccccc12 (repeat unit)
Output line: 151.00 °C

Input line: Try this molecule next: *CC* (repeat unit) [Poly(ethylene)]
Output line: -54.00 ± 89 °C

Input line: Try this molecule next: *Oc1ccc(SC(=O)Sc2ccc(*)cc2)cc1 (repeat unit)
Output line: 117.00 °C

Input line: Try this molecule next: *c1ccc(Oc2ccc(-n3c(=O)c4cc5c(=O)n(*)c(=O)c5cc4c3=O)cc2-c2ccccc2)cc1 (repeat unit)
Output line: 329.00 °C

Input line: Try this molecule next: *c1ccc2c(c1)Sc1cc(-c3sc4cc(*)sc4c3CCCCC)ccc1N2CCCCCCCCCCCC (repeat unit)
Output line: 136.00 °C

Input line: Try this molecule next: *c1c(C)cc(Cc2cc(C)c(N3C(=O)c4ccc(Oc5c(C)cc(Cc6cc(C)c(Oc7ccc8c(c7)C(=O)N(*)C8=O)c(C)c6)cc5C)cc4C3=O)c(C)c2)cc1C (repeat unit)
Output line: 264.00 °C

Input line: Try this molecule next: *c1ccc(Oc2cccc(Oc3ccc(N4C(=O)c5ccc(Oc6ccc(S(=O)(=O)c7ccc(Oc8ccc9c(c8)C(=O)N(*)C9=O)cc7)cc6)cc5C4=O)cc3)c2)cc1 (repeat unit)
Output line: 219.00 °C

Input line: Try this molecule next: *CCCCCCN1C(=O)c2ccc(C(c3ccc4c(c3)C(=O)N(*)C4=O)(C(F)(F)F)C(F)(F)F)cc2C1=O (repeat unit)
Output line: 155.00 °C

Input line: Try this molecule next: *c1ccc(Oc2ccc(C(=O)c3cccc(C(=O)c4ccc(Oc5ccc(-n6c(=O)c7cc8c(=O)n(*)c(=O)c8cc7c6=O)cc5C(F)(F)F)cc4)n3)cc2)c(C(F)(F)F)c1 (repeat unit)
Output line: 227.10 °C

Input line: Try this molecule next: *c1ccc2c(c1)C(=O)N(c1c(C)cc(C(c3cc(C(F)(F)F)cc(C(F)(F)F)c3)c3cc(C)c(N4C(=O)c5ccc(C(*)(C(F)(F)F)C(F)(F)F)cc5C4=O)c(C)c3)cc1C)C2=O (repeat unit)
Output line: 288.00 °C

Input line: Try this molecule next: *Oc1cc(CCCCCC)cc(OC(=O)c2cccc(C(*)=O)c2)c1 (repeat unit)
Output line: 67.50 °C

Input line: Try this molecule next: *NC1CCC(CC(C)(C)NC(=O)CCCCC(*)=O)CC1 (repeat unit)
Output line: 80.00 °C

Where do the numbers come from? From the PolyMetriX glass transition set.
